meta.source: patent US6020328A

Below: a set of entries, each annotated with reported IC50.
Molecular target: progestin receptor (hPR)
Test: progestin receptor binding
Details: cytosol from human T-47D breast cells; [3H]-R5020; read-out: Receptor Binding Affinity hPR IC50
MEASUREMENT KIND: IC50 (nM)

- MOLECULE: "COc1ccc([C@H]2C[C@@]3(C)[C@@H](CC[C@]3(OC(C)=O)C(C)=O)[C@@H]3CCC4=CC(=O)CCC4=C32)cc1"
  EXPERIMENTAL RESULT: 0.8
- MOLECULE: "CC(=O)O[C@]1(C(C)=O)CC[C@H]2[C@@H]3CCC4=CC(=O)CCC4=C3[C@@H](c3ccc(N4CCCCC4)cc3)C[C@@]21C"
  EXPERIMENTAL RESULT: 1.2
- MOLECULE: "CCC(=O)O[C@]1(C(C)=O)CC[C@H]2[C@@H]3CCC4=CC(=O)CCC4=C3[C@@H](c3ccc(N4CCCCC4)cc3)C[C@@]21C"
  EXPERIMENTAL RESULT: 2
- MOLECULE: "CC(=O)[C@@]1(OC(=O)c2ccccc2)CC[C@H]2[C@@H]3CCC4=CC(=O)CCC4=C3[C@@H](c3ccc(N(C)C)cc3)C[C@@]21C"
  EXPERIMENTAL RESULT: 24
- MOLECULE: "CC(=O)[C@H]1CC[C@H]2[C@@H]3CCC4=CC(=O)CC[C@]4(C)[C@H]3CC[C@]12C [Progesterone, reference compound]"
  EXPERIMENTAL RESULT: 3.3
- MOLECULE: "CCC(=O)O[C@]1(C(C)=O)CC[C@H]2[C@@H]3CCC4=CC(=O)CCC4=C3[C@@H](c3ccc4c(ccn4C)c3)C[C@@]21C"
  EXPERIMENTAL RESULT: 2.3
- MOLECULE: "CC[C@]1(C(C)=O)CC[C@H]2[C@@H]3CCC4=CC(=O)CCC4=C3[C@@H](c3ccc(N(C)C)cc3)C[C@@]21C"
  EXPERIMENTAL RESULT: 0.6
- MOLECULE: "CC(=O)OC[C@]1(C(C)=O)CC[C@H]2[C@@H]3CCC4=CC(=O)CCC4=C3[C@@H](c3ccc(N(C)C)cc3)C[C@@]21C"
  EXPERIMENTAL RESULT: 10.6
- MOLECULE: "CCC(=O)O[C@]1(C(C)=O)CC[C@H]2[C@@H]3CCC4=CC(=O)CCC4=C3[C@@H](c3ccc(N4CCCC4)cc3)C[C@@]21C"
  EXPERIMENTAL RESULT: 4.8
- MOLECULE: "CC(=O)O[C@]1(C(C)=O)CC[C@H]2[C@@H]3CCC4=CC(=O)CCC4=C3[C@@H](c3ccc(N4CCCC4)cc3)C[C@@]21C"
  EXPERIMENTAL RESULT: 0.8
- MOLECULE: "CC(=O)[C@@]1(OC(=O)Cc2ccccc2)CC[C@H]2[C@@H]3CCC4=CC(=O)CCC4=C3[C@@H](c3ccc(N(C)C)cc3)C[C@@]21C"
  EXPERIMENTAL RESULT: 7.9

###

Below: a set of entries, each annotated with reported log10(IC50).
Target: progestin receptor (hPR)
Assay: progestin receptor binding
Settings: cytosol from human T-47D breast cells; [3H]-R5020; read-out: Receptor Binding Affinity hPR IC50
MEASUREMENT KIND: log10(IC50) (log10 of the value in nM)

- ENTRY SMILES: "CC(=O)O[C@]1(C(C)=O)CC[C@H]2[C@@H]3CCC4=CC(=O)CCC4=C3[C@@H](c3ccc4c(c3)CCN4C)C[C@@]21C"
  log10(IC50): 0.30
- ENTRY SMILES: "CC(=O)[C@@]1(CO)CC[C@H]2[C@@H]3CCC4=CC(=O)CCC4=C3[C@@H](c3ccc(N(C)C)cc3)C[C@@]21C"
  log10(IC50): 1.64
- ENTRY SMILES: "CC(=O)O[C@]1(C(C)=O)CC[C@H]2[C@@H]3CCC4=CC(=O)CCC4=C3[C@@H](c3ccc(N(C)C)nc3)C[C@@]21C"
  log10(IC50): 1.04
- ENTRY SMILES: "CN(C)c1ccc([C@H]2C[C@@]3(C)[C@@H](CC[C@@]34OC(=O)CCC4=O)[C@@H]3CCC4=CC(=O)CCC4=C32)cc1"
  log10(IC50): 1.08
- ENTRY SMILES: "CC(=O)O[C@]1(C(C)=O)CC[C@H]2[C@@H]3CCC4=CC(=O)CCC4=C3[C@@H](c3ccc(N(C)C)c(F)c3)C[C@@]21C"
  log10(IC50): 0.34
- ENTRY SMILES: "CC(=O)[C@@]1(O)CC[C@H]2[C@@H]3CCC4=CC(=O)CCC4=C3[C@@H](c3ccc(N(C)C)cc3)C[C@@]21C"
  log10(IC50): 1.41
